- assay.method.text: rat acute oral toxicity
- condition.summary: in vivo
measure.name: LD50 (mg/kg)
Answers are plain numbers, in mg/kg.

Consider the reported LD50 for these molecules:
molecule="CC(C)C(C(=O)OC(C#N)c1cccc(Oc2ccccc2)c1)c1ccc(Cl)cc1 (stereo not drawn)" unit_label=mg/kg result_number=135
molecule=CC(C)C(=O)O unit_label=mg/kg result_number=266

Value sought for every listed molecule: LD50.
1. N#C[N-2]
2. O=C1CCN(c2ccccc2)N1
3. COC(=O)Nc1ccc(Cl)c(Cl)c1
4. CC(C)(C)c1ccc(C(O)CCCN2CCC(C(O)(c3ccccc3)c3ccccc3)CC2)cc1 (stereo not drawn)
5. CCCCCOC(C)=O
6. CN(CCCCCC(=O)O)S(=O)(=O)c1ccccc1 (racemic)

1: 158; 2: 200; 3: 522; 4: 438; 5: 6500; 6: 3040

Please supply LD50 for each of the following items, keeping them in order.
1. CC(=O)OC1CC(C)OC(C)O1 (stereo not drawn)
2. CCCCCCCCCCCC[N+](C)(C)[O-]
3. CCCCOCCOCCOC(OCCOCCOCCCC)c1ccc2c(c1)OCO2
4. CCOC(=O)CCN(SN(C)C(=O)Oc1cccc2c1OC(C)(C)C2)C(C)C

1. 1930
2. 1060
3. 2940
4. 105

Each of the following entries comes with a recorded value; kindly state LD50 for each.
1. CCCCCCCCCc1ccc(OP(Oc2ccc(CCCCCCCCC)cc2)Oc2ccc(CCCCCCCCC)cc2)cc1
2. O=C(O)c1cccc(C(=O)O)c1
3. O=S(=O)(C(Cl)(Cl)Cl)C(Cl)(Cl)Cl
4. CO[Si](OC)(c1ccccc1)c1ccccc1
5. C=Cc1cc(Br)ccc1Br

[10000, 10400, 535, 2610, 5790]

----------
- assay.method.text: GHS categories as the set defines them, by LD50: 1 up to 5, 2 up to 50, 3 up to 300, 4 up to 2000, 5 above 2000 mg/kg
- condition.summary: rat; in vivo; po
measure.name: GHS category
Give bare numbers.

molecule=COc1ccc(C(=O)Nc2ccccc2)cc1N=Nc1c(O)c(C(=O)Nc2cc(Cl)ccc2OC)cc2ccccc12 result_number=5
molecule=O=C1CCc2cc(OCCCCc3nnnn3C3CCCCC3)ccc2N1 result_number=5
molecule=Cc1cc(C)c(C2=C(OC(=O)CC(C)(C)C)C3(CCCC3)OC2=O)c(C)c1 result_number=5
molecule=O=C1C[N+]([O-])=C(c2ccccc2)c2cc(Cl)ccc2N1 result_number=5
molecule=CCCCC1C(=O)N(c2cccc(O)c2)N(c2cccc(O)c2)C1=O result_number=4
molecule=CCCCCCCCCCCCC1=C(OC(C)=O)C(=O)c2ccccc2C1=O result_number=5
molecule="CC1OC(Cn2cncn2)(c2cc3ccccc3o2)OC1C (centres undefined)" result_number=4
molecule=O=C(O)c1ccc2ccccc2c1 result_number=5
molecule=O=C1/C(=C2\Nc3ccccc3C2=O)Nc2ccccc21 result_number=5
molecule="CC(O)(CC(=O)O)c1ccc(C2CCCCC2)c(Cl)c1 (centres undefined)" result_number=4

I need GHS category for every entry listed below, if you could help.
1. CCOC(=O)C(C)(C)c1ccccc1
2. COc1ccc2c(c1)CCN(c1ccccc1)C2c1ccc(F)cc1 (centres undefined)
3. C[C@]12Cc3nonc3C[C@@H]1CC[C@@H]1[C@@H]2CC[C@@]2(C)[C@H]1CC[C@]2(C)O

1. 5
2. 4
3. 5
